Assay procedure: Half life in Wistar rat at 15 mg/kg, po measured up to 24 hrs by LC-MS/MS analysis
Assay type: ADME, organism-based
Condition label: in vivo
Experimental readout: half-life (h)

>>> reported_value("COc1ccccc1S(=O)(=O)Nc1ccc2c(c1)C(=C(C)C)C(=O)N2")
3.59

###

Target or test system: Bromodomain-containing protein 4 (Homo sapiens, UniProt O60885)
Assay procedure: Inhibition of BRD4 BD2 (unknown origin) preincubated for 15 mins followed by peptide addition and measured after 60 mins by TR-FRET assay
pIC50: −log10 of the molar value.
Experimental readout: pIC50

>>> reported_value("CC(C)=C1C(=O)Nc2ccc(NS(=O)(=O)c3ccccc3Br)cc21")
7.37
>>> reported_value("COc1ccc(Br)cc1S(=O)(=O)Nc1ccc2c(c1)C(=C(C)C)C(=O)N2")
7.68
